Values were extracted from patent US20260184782A1.

Target: T1, recombinant human TIGIT (human, UniProt Q495A1 22-141, limits assumed)
T1 construct: recombinant human TIGIT used in Carterra SPR; also called hTIGIT
T1 sequence (looked up): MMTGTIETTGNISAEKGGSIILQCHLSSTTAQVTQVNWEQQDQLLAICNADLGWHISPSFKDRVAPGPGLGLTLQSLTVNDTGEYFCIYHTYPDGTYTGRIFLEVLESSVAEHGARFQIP
Assay: SPR Carterra, average
Experimental: Binding affinities of VHH-Fc proteins to recombinant human TIGIT were measured by SPR using a Carterra instrument (Table 10A). […] Average values reported from measurements from 1-2 samples.
READOUT: koff (s⁻¹)
Kindly answer with a numeric value in s⁻¹, unit omitted.

BINDER	READOUT_NUMBER
TIGIT-SC124 (Fc fusion, VHH-Fc fusion in assay) VHH: EVQLVESGGGLVQPGGSLRLSCAASGSIFSSNWMGWFRQAPGKEREMVAAIDWSGGSALYADSVKGRFTISADNSKNTAYLQMNSLKPEDTAVYYCAKDALSNSARFDHWGQGTLVTVSS	0.00531
TIGIT-SC209 (Fc fusion, VHH-Fc fusion in assay) VHH: EVQLVESGGGLVQPGGSLRLSCAASGFLFNSYWMGWFRQAPGKEREFVAAIWRSGTLKAYADSVKGRFTISADNSKNTEYLQMNSLKPEDTAVYYCARDDYGDYRIYFQHWGQGTLVTVSS	0.000625
TIGIT-SC75 (Fc fusion, VHH-Fc fusion in assay) VHH: EVQLVESGGGLVQPGGSLRLSCAASGFIGNYHAMGWFRQAPGKEREFVAAIRWSDGSSYYADSVKGRFTISADNSKNTAYLQMNSLKPEDTAVYYCAKWSYYGSGLYGMDVWGQGTLVTVSS	0.000376

Output koff of TIGIT-SC195 (Fc fusion) VHH: EVQLVESGGGLVQPGGSLRLSCAASGFAFSSDWMGWFRQAPGKEREWVASVLRGGYTWYADSVKGRFTISADNSKNTAYLQMNSLKPEDTAVYYCARGEGFDYWGQGTLVTVSS
0.142

Output koff of TIGIT-SC198 (Fc fusion, VHH-Fc fusion in assay) VHH: EVQLVESGGGLVQPGGSLRLSCAASGFTFSPSWMGWFRQAPGKEREYVASVLRGGYTWYADSVKGRFTISADNSKNTAYLQMNSLKPEDTAVYYCASEGDPDYWGQGTLVTVSS
0.00285

Output koff of TIGIT-SC190 (Fc fusion, VHH-Fc fusion in assay) VHH: EVQLVESGGGLVQPGGSLRLSCAASGFTFDRSWMGWFRQAPGKEREWVASVLRGGYTWYADSVKGRFTISADNSKNTAYLQMNSLKPEDTAVYYCVTDVGAPDYWGQGTLVTVSS
0.0015
